B1: DNA topoisomerase 3-alpha, residues 812 to 851; numbered along this chain, Q13472 (parent)
chain: TCNCGQEAVLLTVRKEGPNRGRQFFKCNGGSCNFFLWADS

# Variants of: B1
# procedureDetails: abundance fitness (aPCA) (normalised: wild type 0, dead -1); higher = more abundant; growth selection in yeast, the domain comes from the species named
# measurementConditions: Homo sapiens
Classification field: Y = abundance fitness at or over -0.2; N = abundance fitness under -0.2.

>>> print(df.to_string())
    variantnotation  classlabel
 0             R14W           Y
 1              N3D           Y
 2              T1Q           N
 3             K26M           N
 4             G30A           N
 5             E16Y           N
 6             V13S           N
 7             G21R           N
 8             G29P           N
 9             G30W           N
10             C27A           N
